propertyMeasured: melting point

Use the examples below as a reference point.
molecule: Cc1cccc2c(-c3ccc(Br)cc3)nccc12
propertyMeasured: melting point
reported: 126 to 128 °C
--
molecule: CC(=O)c1ccc2c(c1)ncn2-c1cccc(-c2cccnc2)c1
propertyMeasured: melting point
reported: 195 to 197 °C

Sample COc1cc(C=Cc2nc3c([nH]2)c(=O)n(C)c(=O)n3C)cc(OC)c1 — what was its melting point?
> 320 °C

Sample CCOC(=O)c1oc2cc(O)ccc2c(=O)c1C#N — what was its melting point?
262 to 264 °C

Sample Cc1ccc(S(=O)(=O)Nc2ccc(C#N)cc2C#N)cc1 — what was its melting point?
200 to 206 °C

Sample CC12CCC(C(=O)O)=CC1=CCc1cc(Cl)ccc12 (single isomer, unassigned; (-)) — what was its melting point?
228 to 230 °C

Sample Cc1cc(-n2nc(C(F)F)cc2-c2ccc(S(C)(=O)=O)cc2)ccc1Cl — what was its melting point?
145 to 146 °C

Sample COc1ccc2cccc(CC#N)c2c1 — what was its melting point?
83 °C

Sample CC(=O)Nc1c(C)nc(N)c(C(=O)NNS(=O)(=O)c2ccccc2)c1C — what was its melting point?
216 to 218 °C

Sample CCc1nc2c(Cl)nc(C)cc2n1-c1ccc(CCNC(=O)NS(=O)(=O)c2ccc(C)cc2)cc1 — what was its melting point?
163 °C

Sample O=[N+]([O-])c1cccc(CSc2nc3cnccc3[nH]2)c1 — what was its melting point?
208 to 210 °C

Sample COc1ccc(C2CN(S(=O)(=O)c3ccc(C)cc3)Cc3ccccc32)c(CO)c1OC (configuration not stated) — what was its melting point?
162 to 164 °C

Sample COc1ccc(CSc2nnc(-c3ccc4c(c3)CCO4)o2)cc1Cl — what was its melting point?
136 to 137 °C

Sample CCCN(CC1CC1)C(=O)c1c2c(nn1C)N(c1c(C)cc(C)cc1Cl)CCC2 — what was its melting point?
121 to 122 °C

Sample COc1ccc2c(c1)c(CC(=O)O)c(C)n2C(=O)c1ccc(OC(F)(F)F)cc1 — what was its melting point?
136 to 138 °C

Sample O=C1c2cccc(Br)c2CN1Cc1cccc(C(F)(F)F)c1 — what was its melting point?
119 to 120 °C

Sample Fc1ccc2onc(CCCN3CCN(c4cc5ccccc5cn4)CC3)c2c1 — what was its melting point?
130 to 133 °C

Sample Cc1cc(OCc2ccccc2)c(C)cc1OCCCC(C)(C)C(=O)O — what was its melting point?
104 to 106 °C

Sample OCc1ccc(/C=C/c2ccncc2)nc1 — what was its melting point?
> 199 °C

Sample C(=Cc1ccc2cc(C=Cc3ccccc3)ccc2c1)c1ccccc1 — what was its melting point?
291 °C

Sample C#CCCCON1Sc2cccc3cccc1c23 — what was its melting point?
56 to 59 °C

Where these numbers come from: a melting point compilation (Tetko et al.; mined from patent text by program, amines drawn as free bases though some values may be those of a salt)
